Entry source: patent US9150586B2

system: LPS-induced neutrophil influx into bronchoalveolar lavage fluid; assay: LPS-induced lung inflammation model: inhibition of LPS-induced neutrophil influx into bronchoalveolar lavage fluid; assay type: in vivo, male Wistar rats; conditions: male Wistar rats; oral by gavage; BALF 4 hours after end of LPS exposure; nonlinear fit
measured_quantity: ED50 (half-maximal effective dose), inhibition of LPS-induced neutrophil influx into BALF (mg/kg body weight)
State just the number; it will be interpreted in mg/kg body weight.

Request: Report ED50 (half-maximal effective dose), inhibition of LPS-induced neutrophil influx into BALF for [O-][S+]1CCc2nc(N3CCC(c4ccc(Cl)cc4)CC3)nc(NC3(CO)CCC3)c21 (single isomer, unassigned) [Example 1] please.
Response: 0.31

Request: Find the recorded ED50 (half-maximal effective dose), inhibition of LPS-induced neutrophil influx into BALF belonging to [O-][S+]1CCc2nc(N3CCC(c4ncc(Cl)cn4)CC3)nc(NC3(CO)CCC3)c21 (single isomer, unassigned) [Example 2] and report it.
Response: 0.1

Request: Query (compound): [O-][S+]1CCc2nc(N3CCC(c4cccc(Cl)c4)CC3)nc(NC3(CO)CC3)c21 (stereo not shown) [Prior art compound D, reference compound] ; field requested: ED50 (half-maximal effective dose), inhibition of LPS-induced neutrophil influx into BALF
Response: 6.66

Request: Entry [O-][S+]1CCc2nc(N3CCC(c4ccc(Cl)cc4)CC3)nc(NC3(CO)CC3)c21 (stereo not shown) [Prior art compound A, reference compound] has what ED50 (half-maximal effective dose), inhibition of LPS-induced neutrophil influx into BALF?
Response: 1.13
